B1: Double-stranded RNA-binding protein Staufen homolog 1, residues 183 to 249; numbered along this chain, O95793 (parent)
chain: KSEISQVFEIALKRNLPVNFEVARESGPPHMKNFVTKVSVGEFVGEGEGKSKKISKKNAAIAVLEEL

Variants of: B1
Assay: abundance fitness (aPCA) (normalised: wild type 0, dead -1); higher = more abundant; growth selection in yeast, the domain comes from the species named
Details: Homo sapiens
Decide by abundance fitness: equal to or exceeding -0.3 means yes, less means no.

variant spec | label
L12Y | yes
P28T | yes
L67P | no

Field: next variant
# check: abundance fitness of I61V is greater than or equal to -0.3
yes

Ref: the Human Domainome abundance scans (Beltran et al. 2025)
